# method: Antiviral activity against Influenza A virus (H1N1) harboring PR8-GLuc infected in human A549 cells assessed as reduction in virus-induced cytopathic effect treated post viral infection for 1 hr by luciferase reporter gene assay
# Format: functional, cell-based, H1N1 subtype
# recorded.conditions: A549, 1 h
readout.label: EC50

Previously resolved entries follow.
{"columns": ["molecule", "EC50"],
 "data": [
  ["O=C(O)[C@H]1C2C=CC(CC2)[C@@H]1c1nnc2c(F)cnc(-c3c[nH]c4ncc(F)cc34)n12 (stereo partly drawn)", "> 40 µM"],
  ["O=C(O)[C@H]1C2C=CC(CC2)[C@@H]1Nc1nc2cnc(-c3c[nH]c4ncc(F)cc34)nc2s1 (stereo partly drawn)", "> 100 µM"]
]}

Here is the next item to consider.
Q: Give the measured EC50 of Cn1cnc2nc(-c3c[nH]c4ncc(F)cc34)nc(N[C@H]3C4C=CC(CC4)[C@@H]3C(=O)O)c21 (stereo partly drawn) .
A: > 10 µM
